Items are presented alongside their recorded log10(MIC).
- Test system: Ps. cepacia 23
- method.summary: in vitro antibacterial activity, agar plate dilution method
- Type: cell-based
- experimental.parameters: Burkholderia cepacia, 23, 16 h
- Experimental: Now, the in vitro antibacterial activities of the compounds of the present invention against various microorganisms, were measured by the following agar plate dilution method. One platinum loopfull of each test microorganism incubated overnight in Mueller Hinton broth, was inoculated to Mueller Hinton agar (MH agaer). […] After incubation at 37° C. for 16 hours, the minimum inhibitory concentrations (MIC μg/ml) were measured.
measured.property: log10(MIC) (log10 of the value in µg/mL)

compound	log10(MIC)
CO/N=C(\C(=O)N[C@@H]1C(=O)N2C(C(=O)O)=C(COC(C)=O)CS[C@H]12)c1csc(N)n1 [Cefotaxime, reference compound]	0.80
C=C(O/N=C(\C(=O)N[C@@H]1C(=O)N2C(C(=O)O)=C(COC(C)=O)CS[C@H]12)c1csc(N)n1)C(=O)O	0.19
C=C(O/N=C(\C(=O)N[C@@H]1C(=O)N2C(C(=O)[O-])=C(C[n+]3cccc(C(=O)O)c3)CS[C@H]12)c1csc(N)n1)C(=O)O	0.80
C=C(O/N=C(\C(=O)N[C@@H]1C(=O)N2C(C(=O)O)=C(CSc3nc(-c4ccc(O)c(O)c4)cs3)CS[C@H]12)c1csc(N)n1)C(=O)O	-1.60
CC(C)(O/N=C(\C(=O)N[C@@H]1C(=O)N2C(C(=O)[O-])=C(C[n+]3ccccc3)CS[C@H]12)c1csc(N)n1)C(=O)O [Ceftazidime, reference compound]	-0.11
C=C(O/N=C(\C(=O)N[C@@H]1C(=O)N2C(C(=O)O)=C(CSc3ncc(-c4ccc(O)c(O)c4)o3)CS[C@H]12)c1csc(N)n1)C(=O)O	-1.90
C=C(O/N=C(\C(=O)N[C@@H]1C(=O)N2C(C(=O)[O-])=C(C[n+]3cccc4c3CCC4)CS[C@H]12)c1csc(N)n1)C(=O)O	-0.41

* * *

- method.summary: concentration in blood after subcutaneous administration to mice (paper disk method, Morganella morganii IFO 3843)
- Assay type: in vivo, mice (ddY, male)
- experimental.parameters: mouse, sc, 20 mg/kg subcutaneous, 240 min
measured.property: concentration at 4 h (ng/mL)

molecule	reading
C=C(O/N=C(\C(=O)N[C@@H]1C(=O)N2C(C(=O)O)=C(CSc3nc(C(=O)O)c(-c4ccc(O)c(O)c4)s3)CS[C@H]12)c1csc(N)n1)C(=O)O [Example 15]	7200

* * *

- method.summary: concentration in blood after subcutaneous administration to mice (paper disk method, Morganella morganii IFO 3843)
- Format: in vivo, mice (ddY, male)
- experimental.parameters: mouse, sc, 20 mg/kg subcutaneous, 60 min
measured.property: concentration at 1 h

compound	reading
C=C(O/N=C(\C(=O)N[C@@H]1C(=O)N2C(C(=O)O)=C(CSc3nc(C(=O)O)c(-c4ccc(O)c(O)c4)s3)CS[C@H]12)c1csc(N)n1)C(=O)O [Example 15]	21900 ng/mL

* * *

- Test system: S. marcescens No. 16-2*
- method.summary: in vitro antibacterial activity, agar plate dilution method
- Type: cell-based
- experimental.parameters: Serratia marcescens, 16 h
Each item that follows carries a reported MIC.

compound	MIC / µg/mL
C=C(O/N=C(\C(=O)N[C@@H]1C(=O)N2C(C(=O)[O-])=C(C[n+]3ccc(C(=O)O)cc3)CS[C@H]12)c1csc(N)n1)C(=O)O [Example 5]	6.25
C=C(O/N=C(\C(=O)N[C@@H]1C(=O)N2C(C(=O)O)=C(CSc3nnc(-c4ccc(O)c(O)c4)o3)CS[C@H]12)c1csc(N)n1)C(=O)O [Example 11]	0.2
C=C(O/N=C(\C(=O)N[C@@H]1C(=O)N2C(C(=O)[O-])=C(C[n+]3cccc(NC=O)c3)CS[C@H]12)c1csc(N)n1)C(=O)O [Example 10]	1.56
C=C(O/N=C(\C(=O)N[C@@H]1C(=O)N2C(C(=O)[O-])=C(C[n+]3cccc(C(N)=O)c3)CS[C@H]12)c1csc(N)n1)C(=O)O [Example 4]	0.78
C=C(O/N=C(\C(=O)N[C@@H]1C(=O)N2C(C(=O)O)=C(CSc3nnnn3C)CS[C@H]12)c1csc(N)n1)C(=O)O [Example 19]	1.56
C=C(O/N=C(\C(=O)N[C@@H]1C(=O)N2C(C(=O)O)=C(CSc3ncc(-c4ccc(O)c(O)c4)o3)CS[C@H]12)c1csc(N)n1)C(=O)O [Example 14]	0.39
C=C(O/N=C(\C(=O)N[C@@H]1C(=O)N2C(C(=O)O)=C(CSc3nc(-c4ccc(OC(C)=O)c(OC(C)=O)c4)c(CC(=O)O)s3)CS[C@H]12)c1csc(N)n1)C(=O)O [Example 16]	0.78
C=C(O/N=C(\C(=O)N[C@@H]1C(=O)N2C(C(=O)O)=C(CSc3nc(-c4ccc(O)c(O)c4)cs3)CS[C@H]12)c1csc(N)n1)C(=O)O [Example 12]	0.39
C=C(O/N=C(\C(=O)N[C@@H]1C(=O)N2C(C(=O)[O-])=C(C[n+]3cccc4c3CCC4)CS[C@H]12)c1csc(N)n1)C(=O)O [Example 2]	0.78
C=C(O/N=C(\C(=O)N[C@@H]1C(=O)N2C(C(=O)[O-])=C(C[n+]3cccc(N)c3)CS[C@H]12)c1csc(N)n1)C(=O)O [Example 9]	1.56
CO/N=C(\C(=O)N[C@@H]1C(=O)N2C(C(=O)O)=C(COC(C)=O)CS[C@H]12)c1csc(N)n1 [Cefotaxime, reference compound]	6.25
CC(C)(O/N=C(\C(=O)N[C@@H]1C(=O)N2C(C(=O)[O-])=C(C[n+]3ccccc3)CS[C@H]12)c1csc(N)n1)C(=O)O [Ceftazidime, reference compound]	1.56
C=C(O/N=C(\C(=O)N[C@@H]1C(=O)N2C(C(=O)O)=C(CSc3nnc(-c4ccc(O)c(O)c4)s3)CS[C@H]12)c1csc(N)n1)C(=O)O [Example 13]	0.05
